- run-description: recombinant barcode read abundance after kanamycin selection (control-corrected) (log10(CPM+1)); higher = more efficient recombination; sequences stand for … in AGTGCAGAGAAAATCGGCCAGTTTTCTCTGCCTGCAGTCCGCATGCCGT…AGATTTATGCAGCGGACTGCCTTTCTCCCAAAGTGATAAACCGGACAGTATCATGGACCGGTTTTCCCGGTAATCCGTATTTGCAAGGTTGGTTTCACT; site = the 11-nt target
Mark Not satisfied for recombinant barcode read abundance (log10) values under 0.2, and Satisfied for everything at or above.

sequence_data="ACCCAGTCTTGGGTTCTAACCTGTTGCCA (site AACCAGTCTCG)" discrete_label="Not satisfied"
sequence_data="GACCAGCCTTGGGTTCTAACCTGTTGCTT (site GACCAGCCTAA)" discrete_label=Satisfied

# check: recombinant barcode read abundance (log10) of TCGGACCCTTGGGTTCTAACCTGTTGCGA (site TCGTACCCTTC) is greater than or equal to 0.2
Satisfied

Determine whether this sequence has recombinant barcode read abundance (log10) no lower than 0.2: GCGTCGTCTTGGGTTCTAACCTGTTGCCT (site GCCTCGTCTAG)
Not satisfied

recombinant barcode read abundance (log10) >= 0.2 for CTCTCCACTTGGGTTCTAACCTGTTGCCA (site CTCTCCACTTG) ?
Not satisfied

---

- run-description: recombinant UMI read abundance after kanamycin selection (control-corrected) (log10(CPM+1)); higher = more efficient recombination; extreme values may be limits of the assay; sequences stand for … in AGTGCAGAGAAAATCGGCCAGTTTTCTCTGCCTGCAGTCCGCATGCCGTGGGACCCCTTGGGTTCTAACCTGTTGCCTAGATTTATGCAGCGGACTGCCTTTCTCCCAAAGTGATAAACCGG…AGGTTGGTTTCACT; site = the 11-nt donor
observed-property: recombinant UMI read abundance (log10)
Write the value as a bare number.

Some sequences with known recombinant UMI read abundance (log10) results, for comparison:
sequence_data="TAGCTCACATGGACCGGTTTTCCCGGTAATCCGTATTTGAT (site CAGCTCACTAT)" observed_property="recombinant UMI read abundance (log10)" assay_result=0.61
sequence_data="ACTTCCGCATGGACCGGTTTTCCCGGTAATCCGTATTTGTT (site ACTTCCGCTAA)" observed_property="recombinant UMI read abundance (log10)" assay_result=1.5
sequence_data="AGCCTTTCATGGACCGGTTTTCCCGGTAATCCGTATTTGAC (site AGCCTTTCTGT)" observed_property="recombinant UMI read abundance (log10)" assay_result=0

Request the reported recombinant UMI read abundance (log10) associated with GATGATCCATGGACCGGTTTTCCCGGTAATCCGTATTTGCT (site GATCATCCTAG)
0

For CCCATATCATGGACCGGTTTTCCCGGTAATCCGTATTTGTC (site CCCATATCTTA) , what is its reported recombinant UMI read abundance (log10)?
0

// recombinant UMI read abundance (log10) lookup, key: TCCTTCTCATGGACCGGTTTTCCCGGTAATCCGTATTTGGG (site CCCTTCTCTCC)
0.00366

I would be grateful if you could share the reported recombinant UMI read abundance (log10) for CTCTGCACATGGACCGGTTTTCCCGGTAATCCGTATTTGCT (site CTCTACACTAG) .
0.861

Given TATCTCGCATGGACCGGTTTTCCCGGTAATCCGTATTTGCA (site TATCTCGCTTG) , state its recorded recombinant UMI read abundance (log10).
0.374

Which recombinant UMI read abundance (log10) value belongs to TTTACACCATGGACCGGTTTTCCCGGTAATCCGTATTTGAC (site TATACACCTGT) ?
0

Param item = CGGGAACCATGGACCGGTTTTCCCGGTAATCCGTATTTGAA (site CGGGAACCTCT) ; retrieve measured recombinant UMI read abundance (log10).
0.00576

Tell me the measured recombinant UMI read abundance (log10) of CGGGAACCATGGACCGGTTTTCCCGGTAATCCGTATTTGAA (site CGGGAACCTAT) , please.
0

Quick one: recombinant UMI read abundance (log10) of CATGCCTCATGGACCGGTTTTCCCGGTAATCCGTATTTGCT (site CATGCCTCTAG) ?
2.76

For the sequence shown here, AAGGACGCATGGACCGGTTTTCCCGGTAATCCGTATTTGGG (site AAGCACGCTCC) , give the reported recombinant UMI read abundance (log10).
0.0166

Looking for the measured recombinant UMI read abundance (log10) of ACACAAACATGGACCGGTTTTCCCGGTAATCCGTATTTGTC (site ACACGAACTGA) , can you help?
0

Looking for the measured recombinant UMI read abundance (log10) of CGAGTGGCATGGACCGGTTTTCCCGGTAATCCGTATTTGGT (site CGAGTGGCTAC) , can you help?
1.1

// lookup recombinant UMI read abundance (log10) for AGCCTTTCATGGACCGGTTTTCCCGGTAATCCGTATTTGAA (site AGCCTTTCTGT)
0

What recombinant UMI read abundance (log10) value was documented for this sequence, GGCGCACCATGGACCGGTTTTCCCGGTAATCCGTATTTGCA (site GGAGCACCTTG) ?
0

Requested read-out: recombinant UMI read abundance (log10). Entry: ACTTCTCCATGGACCGGTTTTCCCGGTAATCCGTATTTGAT (site ACTTCTCCTAT)
0.78
